# System: KB-3-1
# TEST_PROTOCOL: Cytotoxic Profiling of Annotated Libraries Using Quantitative High-Throughput Screening (AID 1296008); note: % is set by controls: 0 for no effect and ±100 for the full control effect; nearly all actives have a fitted effect of over 60% in size
# TEST_CONTEXT: Five cell lines viability, CellTiter-Glo ATP luminescence, 48-72 h; hits give low values
# Method: Cell-based phenotypic screening is a commonly used approach to discover biological pathways, novel drug targets, chemical probes and high-quality hit-to-lead molecules. […] A pintool (Kalypsys) was used to transfer 23 nL of compound solution to the 1536-well assay plates. […] Plates were left at room temperature for 10 min before imaging the ATP-coupled luminescence using a ViewLux microplate imager (PerkinElmer, Waltham, MA).
Results filed as inconclusive are left out.
QUANTITY_MEASURED: max response (%)

>>> observed_measurement("CN(C)c1ccc(C(=C2C=CC(=[N+](C)C)C=C2)c2ccccc2)cc1")
-1.13
>>> observed_measurement("COc1cc(NC(C)CCCN)c2ncccc2c1 (stereo not given)")
20.7
>>> observed_measurement("CCCCCCCCCCCCCCCC(=O)OC(C)C")
12.9
>>> observed_measurement("O=C1CN(/N=C/c2ccc([N+](=O)[O-])o2)C(=O)N1")
-3.33
>>> observed_measurement("CN1[C@@H](CC(=O)c2ccccc2)CCC[C@H]1C[C@H](O)c1ccccc1")
-11.5
>>> observed_measurement("CCCCCCCCCCCCCCCCCC(=O)O")
-8.88
>>> observed_measurement("Cc1c(C(=O)O)c(O)cc2c1C(=O)c1c(O)c([C@@H]3O[C@H](CO)[C@@H](O)[C@H](O)[C@H]3O)c(O)c(O)c1C2=O")
-19.3
>>> observed_measurement("Clc1ccccc1-c1nc(-c2ccncc2)no1")
12
>>> observed_measurement("O=C(Nc1ccc(C(=O)O)c(O)c1)c1ccccc1")
-1.99
>>> observed_measurement("CCC1C(=O)OCC1Cc1cncn1C (stereo not given)")
-11.4
>>> observed_measurement("CN1CCN(c2cc3c(nn2)Oc2ccccc2N3C)CC1")
-19.4
>>> observed_measurement("O=C(Nc1ccc2c(c1)CCN(Cc1ncn[nH]1)C2)c1ccccc1-c1ccc(C(F)(F)F)cc1")
1.94
>>> observed_measurement("Nc1cc(-c2ccncc2)c[nH]c1=O")
4.08
>>> observed_measurement("C#CC1(O)CC[C@H]2[C@@H]3CCC4=CCCC[C@@H]4[C@H]3CC[C@@]21C (stereo not given in full)")
-2.21
>>> observed_measurement("O=C(O)Cc1ccc(-c2ccccc2)cc1")
-5.98
>>> observed_measurement("Nc1c(CC(=O)O)cccc1C(=O)c1ccc(Br)cc1")
0.539
>>> observed_measurement("CC(N)C(=O)OC(C)(C)Cc1ccc(Cl)cc1 (stereo not given)")
3.19
>>> observed_measurement("CCCCCCCCCCCC(=O)[O][Sn]([CH2]CCC)([CH2]CCC)[O]C(=O)CCCCCCCCCCC")
-5.63
>>> observed_measurement("CCCCCCOc1ccccc1C(N)=O")
0.591
>>> observed_measurement("O=c1[nH]c2ccccc2n1CCCN1CCN(C(c2ccccc2)c2ccccc2)CC1")
18.6
>>> observed_measurement("N=C(N)N")
-12.6
>>> observed_measurement("COc1cc(/C=C/C(=O)N2CCN(CC(=O)N3CCCC3)CC2)cc(OC)c1OC")
5.58
>>> observed_measurement("O=C(CCN1CCN(CCO)CC1)N1c2ccccc2Sc2ccc(C(F)(F)F)cc21")
-4.21
>>> observed_measurement("Cc1ccc(C(=O)c2ccc(CC(=O)O)n2C)cc1")
-6.96
>>> observed_measurement("CCOc1ccc2nc(S(N)(=O)=O)sc2c1")
8.76
